B1: Caulobacter ParB omega fusion; a variant is named by its letters at X, in order, B8GW30 (parent)
chain: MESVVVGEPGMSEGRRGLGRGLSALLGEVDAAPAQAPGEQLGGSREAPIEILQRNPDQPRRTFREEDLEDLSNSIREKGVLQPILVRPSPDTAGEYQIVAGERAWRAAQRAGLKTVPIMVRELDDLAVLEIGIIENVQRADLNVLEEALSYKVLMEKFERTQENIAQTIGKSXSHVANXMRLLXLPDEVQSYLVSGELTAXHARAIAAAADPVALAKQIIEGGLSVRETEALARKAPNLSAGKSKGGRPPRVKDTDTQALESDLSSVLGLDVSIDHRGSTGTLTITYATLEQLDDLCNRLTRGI

Variants of: B1
procedure-summary: one-hybrid fitness for binding parS DNA (scaled: cognate 1, non-cognate 0); higher = stronger binding
conditions: with parS DNA site
Whole data set: some 81,000 sequences, median “one-hybrid fitness for binding parS DNA” near -0.17, cut for the highest 2% near 0.51. Only a selection was taken, and the highest values are over-represented in it overall.
endpoint-name: one-hybrid fitness for binding parS DNA

Solved cases below.
variant-description | one-hybrid fitness for binding parS DNA
ELAG | ≤ 0.2
RPGS | ≤ 0.2
RMGS | 0.988
IIKT | ≤ 0.2
CPMT | ≤ 0.2
FTGR | ≤ 0.2
YSQA | ≤ 0.2
NGPC | ≤ 0.2
RKPA | 0.223
IALI | ≤ 0.2

Query: Please look up its one-hybrid fitness for binding parS DNA: IRGH
Result: ≤ 0.2

Query: May I ask what one-hybrid fitness for binding parS DNA has been recorded for CHEL ?
Result: ≤ 0.2

Query: # query: one-hybrid fitness for binding parS DNA of entry RFGH
Result: 0.245
